# Test system: 52b3 anti-dsDNA monoclonal antibody
# PROTOCOL DESCRIPTION: ELISA binding of monoclonal antibody 52b3 to phage clones
# Design: species or system mouse
# RUN CONDITIONS: 52b3 selected phage, Table 3
Ends that are not written are not given here.
Recorded Binding O.D. 405 nm by entry

# SUBSTANCE, Binding O.D. 405 nm
records = [
    ("C G V D G R W P R W (CGVDGRWPRW; displayed on phage; peptide (1)..(10) randomly-selected sequence obtained by biopanning a decapeptide library with 52b3) [φB23]", 1.5),
    ("E D L E G E W P M R (EDLEGEWPMR; displayed on phage; peptide (1)..(10) randomly-selected sequence obtained by biopanning a decapeptide library with 52b3) [φB22]", 1.5),
    ("D G E W P R E G W S (DGEWPREGWS; displayed on phage; peptide (1)..(10) randomly-selected sequence obtained by biopanning a decapeptide library with 52b3) [φB56]", 1.6),
    ("V L I C W D G C E T (VLICWDGCET; displayed on phage; peptide (1)..(10) randomly-selected sequence obtained by biopanning a decapeptide library with 52b3) [φB17]", 1.6),
    ("R H E D G D W P R V (RHEDGDWPRV; not fully specified (N-terminus, C-terminus)) [φB11]", 1.4),
    ("S L D E L D W D S M (SLDELDWDSM; displayed on phage; peptide (1)..(10) randomly-selected sequence obtained by biopanning a decapeptide library with 52b3) [φB1]", 1.4),
    ("W D C Y V C R L E L (WDCYVCRLEL; displayed on phage; peptide (1)..(10) randomly-selected sequence obtained by biopanning a decapeptide library with 52b3) [φB21]", 1.2),
    ("L L D D G F W P R V (LLDDGFWPRV; displayed on phage; peptide (1)..(10) randomly-selected sequence obtained by biopanning a decapeptide library with 52b3) [φB25]", 1.5),
    ("S C Y Q S Y P G E C (SCYQSYPGEC; displayed on phage; peptide (1)..(10) randomly-selected sequence obtained by biopanning a decapeptide library with 52b3) [φB52]", 1.8),
    ("S L I S D E W P R W (SLISDEWPRW; displayed on phage; peptide (1)..(10) randomly-selected sequence obtained by biopanning a decapeptide library with 52b3) [φB24]", 1.3),
    ("T W C P V W I W D C (TWCPVWIWDC; displayed on phage; peptide (1)..(10) randomly-selected sequence obtained by biopanning a decapeptide library with 52b3) [φB16]", 1.0),
]
